- procedure_text: folding enthalpy; higher = less favourable; fluorescence melt of hairpins on a sequencing array, two-state fit
- condition_summary: sodium 0.088 M
# Lookup of reported folding enthalpy keyed by entry

# macromolecule_sequence, folding enthalpy (kcal/mol)
records = [
    ("GCGGCGCGAAAGCGATGC ((..(((....)))..))", -38.6),
    ("GCGCACGGAAACGCGCAC (.((.((....)).)).)", -13.7),
    ("GGGGTCGGAAACGACCTC (.(((((....))))).)", -14.1),
    ("GGGACCCGAAAGGGACCC (((.(((....))).)))", -31.1),
    ("GCCATATCGAAAGATGGC (((..(((....))))))", -34.6),
    ("GCAAGGCGAAAGCAGTGC (((..((....))..)))", -16.8),
    ("GCCGAAGGAAACTTCAGC ((.((((....)))).))", -11.7),
    ("GCGGACGCCCGC ((((....))))", -20.1),
    ("GTAGTACGAAAGTATAC (((.(((....))))))", -17.1),
    ("GAAACGAAAGTTTC (((((....)))))", -29.1),
    ("GTTCAACCGAAAGGTAAC (((..(((....))))))", -11.7),
    ("GCCGGTGGAAACACCGAC (.(((((....))))).)", -12.4),
    ("GCACCGCGAAAGCGCCGC ((..(((....)))..))", -8.78),
    ("GCAATACGAAAGTAATGC (((.(((....))).)))", -37.4),
    ("GGCTTGGAAACAAGCC ((((((....))))))", -31.2),
    ("GATCAGAATCTGATC ((((((...))))))", -31.4),
    ("GACTGAACGAAAGTTGTC (((..(((....))))))", -19.5),
    ("GCGCAGGGAAACCTACGC (((.(((....))).)))", -39.9),
    ("GATCTTGAATAAGATC ((((((....))))))", -31.9),
    ("GGCGTTGGAAACAATGCC (((.(((....))).)))", -53.7),
    ("GGTCTTCGAAAGAATACC (((.(((....))).)))", -32.9),
    ("GTCGTCGAAAGACCGAC ((((((....))).)))", -23.5),
    ("GCGGCCGAAAGGCTCGC ((((((....))).)))", -23.5),
    ("GTGATTGGAAACAATCAC (((((((....)))))))", -46.9),
    ("GATCTGAGCTCAGATC ((((((....))))))", -51.6),
    ("GCAGCCGAAAGGCGTTGC ((((((....)))..)))", -13.8),
    ("GAGAGCGGAAACGCTCCC (.(((((....))))).)", -9.72),
    ("GCTGGAGGAAACTCTGGC ((..(((....)))..))", -28),
    ("AAAGGGAAACCTTT (((((....)))))", -10),
    ("GCGACATTTCGC ((((....))))", -22),
    ("CGGCACGGAAACGTACCG (((.(((....))).)))", -30.5),
    ("GCGGCAATCCGC ((((....))))", -21.9),
    ("GCGTGCTTACGC ((((....))))", -16.9),
    ("GATGGCGCGAAAGCGATC (((..(((....))))))", -11),
    ("GTTTTCCGAAAGGAGAAC (((.(((....))).)))", -30.4),
    ("GTGGAGCGAAAGCTTCAC (((.(((....))).)))", -35.6),
    ("GAGACTGAAAAGTCTC ((((((....))))))", -35.9),
    ("GCCATCGAAAGATCCGGC ((((((....)))..)))", -19.6),
    ("GATCCCTTGTGGGATC ((((((....))))))", -31),
    ("GCCCCAGGAAACCGGGAC (.(((.(....).))).)", -16.3),
    ("GGGCCGCGAAAGCGTCCC (((.(((....))).)))", -20.4),
    ("GCTAAGCGAAAGCTCAGC (((.(((....))).)))", -31.6),
    ("GATCTAAGATTAGATC ((((((....))))))", -32.1),
    ("GGCTAGGGAAACCTAGCC (((((((....)))))))", -42.6),
    ("GATCCTGGTTAGGATC ((((((....))))))", -38),
    ("GGTTGTGGAAACATGACC (((..((....))..)))", -30.9),
    ("GAAGTGCGAAAGCAGTTC (((.(((....))).)))", -33.5),
    ("GCGGCACCCGC ((((...))))", -21.9),
    ("GAGCCTGGAAACAGGTTC ((.((((....)))).))", -27.2),
    ("GATCCAAGTATGGATC ((((((....))))))", -36.5),
    ("GTCGGCGAAAGCCCTGAC ((((((....)))..)))", -10.4),
]

====

- procedure_text: melting temperature; fluorescence melt of hairpins on a sequencing array, two-state fit, raised by 9.35 °C to match UV melts
- condition_summary: sodium 0.088 M

# macromolecule_sequence, Tm / °C
rows = [
    ("GATCTAAGATTAGATC ((((((....))))))", 37.5),
    ("GTGTATGGAAACATATAC ((.((((....)))).))", 37.8),
    ("GTACAGGGAAACCTGTGC (.(((((....))))).)", 49.8),
    ("GCTCAGCGAAAGCGGTGC ((.(.((....)).).))", 55.2),
    ("GATCCTACGCAGGATC ((((((....))))))", 51.1),
    ("GCGAAACTTCGC ((((....))))", 51.1),
    ("GGTGGCGAAAGCCATACC ((((((....)))..)))", 45.6),
    ("GATAAGCGAAAGCTATC (((.(((....))))))", 42.8),
    ("GCGGCGACCCGC ((((....))))", 57.3),
    ("GGAAGGCGAAAGCCGTCC (((.(((....))).)))", 58),
    ("GGCGACGAAAGTCGCGCC ((((((....)))..)))", 65.8),
    ("GTAGGCGAAAGCCGGTAC ((((((....)))..)))", 42.2),
]

====

# Lookup of reported Tm keyed by entry
- procedure_text: melting temperature; fluorescence melt of hairpins on a sequencing array, two-state fit, raised by 9.35 °C to match UV melts
- condition_summary: sodium 0.088 M

# macromolecule_sequence, endpoint_unit, Tm
rows = [
    ("GTAGACGAAAGTCTATAC ((((((....)))..)))", "°C", 42.6),
    ("GCATTGCGAAAGCACTGC (((.(((....))).)))", "°C", 52.2),
    ("CGGTCCCGGAAACGGCCG (((..(((....))))))", "°C", 41.3),
    ("GGCTAGAAATAGCC (((((....)))))", "°C", 51.5),
    ("GAAGCAGGAAACTACTTC ((((.((....)).))))", "°C", 31.7),
    ("GTACTGGGAAACCAGCAC ((.((((....)))).))", "°C", 42.3),
]

====

- procedure_text: melting temperature; fluorescence melt of hairpins on a sequencing array, two-state fit, raised by 9.35 °C to match UV melts
- condition_summary: sodium 0.088 M
Mark condition not met for Tm values under 50 °C, and condition met for everything at or above.

# macromolecule_sequence, assigned_category
measured = [
    ("GGCCGGGGAAACCTGGCC ((((.((....)).))))", "condition met"),
    ("GACACGGAAACGTGTC ((((((....))))))", "condition met"),
    ("GCGGGACGCCGC ((((....))))", "condition met"),
    ("GAGGTCACGAAAGTGCTC (((..(((....))))))", "condition not met"),
    ("GATAACACGAAAGTGATC (((..(((....))))))", "condition not met"),
    ("GCGGGAGGAAACTCTCGC (((.(((....))).)))", "condition met"),
    ("GGACTCCGAAAGGATTCC (((.(((....))).)))", "condition not met"),
    ("GTACGAGCGAAAGCTTAC (((..(((....))))))", "condition not met"),
    ("GCCCCCACGAAAGTGGGC (((..(((....))))))", "condition not met"),
    ("GCGGAAGGAAACTTCCAC (.(((((....))))).)", "condition not met"),
    ("GCAGACGGAAACATCCGC ((.((.(....).)).))", "condition not met"),
    ("GATCTGGTATCAGATC ((((((....))))))", "condition met"),
    ("GCATATACGAAAGTATGC (((..(((....))))))", "condition not met"),
    ("GAAACACGAAAGTGATTC (((.(((....))).)))", "condition not met"),
    ("GGCCCCGAAAGGGTGGCC ((((((....)))..)))", "condition met"),
    ("GATCTTCGTAAGATC ((((((...))))))", "condition not met"),
    ("GGAATACGAAAGTACTCC (((.(((....))).)))", "condition not met"),
    ("GACTTAGCGAAAGCTGTC (((..(((....))))))", "condition not met"),
    ("GGCGTTGGAAACAATGCC (((.(((....))).)))", "condition met"),
    ("GATCATACCCATGATC ((((((....))))))", "condition not met"),
]
